The measured values listed here are drawn from patent US12479838B2.

Biological target: human D2LR (Homo sapiens (Human), UniProt P14416)
Sequence (P14416 whole entry): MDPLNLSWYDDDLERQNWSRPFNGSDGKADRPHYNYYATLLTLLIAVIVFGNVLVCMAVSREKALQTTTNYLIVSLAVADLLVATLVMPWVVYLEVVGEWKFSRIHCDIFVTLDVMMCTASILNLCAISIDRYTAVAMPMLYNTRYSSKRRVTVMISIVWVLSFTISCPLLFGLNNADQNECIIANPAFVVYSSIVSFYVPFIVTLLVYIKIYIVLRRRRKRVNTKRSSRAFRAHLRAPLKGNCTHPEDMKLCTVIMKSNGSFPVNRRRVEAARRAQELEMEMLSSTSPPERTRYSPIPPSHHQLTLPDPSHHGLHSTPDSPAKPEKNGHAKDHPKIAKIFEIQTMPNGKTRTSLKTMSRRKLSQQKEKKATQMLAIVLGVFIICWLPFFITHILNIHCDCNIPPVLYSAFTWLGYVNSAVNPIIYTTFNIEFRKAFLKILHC
Experiment: Radioligand competition binding vs. [3H]-(R)-(+)-7-OH-DPAT, hD2R
Conditions: vs. [3H]-(R)-(+)-7-OH-DPAT; HEK293 cells stably expressing hD2R; read-out: D2R Ki ± SEM
property_name: pKi
One number for each entry, as −log10 of the molar value.

Below, 3 compounds whose answers are already recorded.
                                   compound                          target_or_system  value
0  C[C@H]1CO[C@@H](c2ccc(N)nc2)CN1CC1CC1CNC(=O)c1cc2ccccc2[nH]1 (stereo partly drawn) [trans-AB05-27B]  human D2LR (Homo sapiens (Human), UniProt P14416)   6.15
1  C[C@H]1CO[C@H](c2ccc(N)nc2)CN1CC1CC1CNC(=O)c1cc2ccccc2[nH]1 (stereo partly drawn) [cis-FOB01-60B]  human D2LR (Homo sapiens (Human), UniProt P14416)   5.11
2  CCCN(CCC)c1ccc(C2CN(CCC)[C@@H](C)CO2)cn1 (stereo partly shown) [AB04-52]  human D2LR (Homo sapiens (Human), UniProt P14416)   5.08

Pending compound:
Consider the compound C[C@H]1COC(c2ccc(N)nc2)CN1CCCCOc1ccc2c(c1)NC(=O)CC2 (stereo partly shown) [AB04-35] . State its measured pKi.
6.95
